Origin of measurements: patent US20240336574A1

target: recombinant human NaV1.8 stably transfected HEK cells (Homo sapiens); construct: expressed in transfected cells; host or cells: HEK cells, stably transfected; test: Compound profiling on NaV1.8, human NaV1.8 cell line, SyncroPatch384PE automated patch clamp assay (Example 102, first set of compounds, Table 16); assay type: cell-based; conditions: resting state block (P1 measurement), human NaV1.8 HEK cells, Table 16 (first set of compounds), read-out: P1IC50
Sequence (Q9Y5Y9 whole entry): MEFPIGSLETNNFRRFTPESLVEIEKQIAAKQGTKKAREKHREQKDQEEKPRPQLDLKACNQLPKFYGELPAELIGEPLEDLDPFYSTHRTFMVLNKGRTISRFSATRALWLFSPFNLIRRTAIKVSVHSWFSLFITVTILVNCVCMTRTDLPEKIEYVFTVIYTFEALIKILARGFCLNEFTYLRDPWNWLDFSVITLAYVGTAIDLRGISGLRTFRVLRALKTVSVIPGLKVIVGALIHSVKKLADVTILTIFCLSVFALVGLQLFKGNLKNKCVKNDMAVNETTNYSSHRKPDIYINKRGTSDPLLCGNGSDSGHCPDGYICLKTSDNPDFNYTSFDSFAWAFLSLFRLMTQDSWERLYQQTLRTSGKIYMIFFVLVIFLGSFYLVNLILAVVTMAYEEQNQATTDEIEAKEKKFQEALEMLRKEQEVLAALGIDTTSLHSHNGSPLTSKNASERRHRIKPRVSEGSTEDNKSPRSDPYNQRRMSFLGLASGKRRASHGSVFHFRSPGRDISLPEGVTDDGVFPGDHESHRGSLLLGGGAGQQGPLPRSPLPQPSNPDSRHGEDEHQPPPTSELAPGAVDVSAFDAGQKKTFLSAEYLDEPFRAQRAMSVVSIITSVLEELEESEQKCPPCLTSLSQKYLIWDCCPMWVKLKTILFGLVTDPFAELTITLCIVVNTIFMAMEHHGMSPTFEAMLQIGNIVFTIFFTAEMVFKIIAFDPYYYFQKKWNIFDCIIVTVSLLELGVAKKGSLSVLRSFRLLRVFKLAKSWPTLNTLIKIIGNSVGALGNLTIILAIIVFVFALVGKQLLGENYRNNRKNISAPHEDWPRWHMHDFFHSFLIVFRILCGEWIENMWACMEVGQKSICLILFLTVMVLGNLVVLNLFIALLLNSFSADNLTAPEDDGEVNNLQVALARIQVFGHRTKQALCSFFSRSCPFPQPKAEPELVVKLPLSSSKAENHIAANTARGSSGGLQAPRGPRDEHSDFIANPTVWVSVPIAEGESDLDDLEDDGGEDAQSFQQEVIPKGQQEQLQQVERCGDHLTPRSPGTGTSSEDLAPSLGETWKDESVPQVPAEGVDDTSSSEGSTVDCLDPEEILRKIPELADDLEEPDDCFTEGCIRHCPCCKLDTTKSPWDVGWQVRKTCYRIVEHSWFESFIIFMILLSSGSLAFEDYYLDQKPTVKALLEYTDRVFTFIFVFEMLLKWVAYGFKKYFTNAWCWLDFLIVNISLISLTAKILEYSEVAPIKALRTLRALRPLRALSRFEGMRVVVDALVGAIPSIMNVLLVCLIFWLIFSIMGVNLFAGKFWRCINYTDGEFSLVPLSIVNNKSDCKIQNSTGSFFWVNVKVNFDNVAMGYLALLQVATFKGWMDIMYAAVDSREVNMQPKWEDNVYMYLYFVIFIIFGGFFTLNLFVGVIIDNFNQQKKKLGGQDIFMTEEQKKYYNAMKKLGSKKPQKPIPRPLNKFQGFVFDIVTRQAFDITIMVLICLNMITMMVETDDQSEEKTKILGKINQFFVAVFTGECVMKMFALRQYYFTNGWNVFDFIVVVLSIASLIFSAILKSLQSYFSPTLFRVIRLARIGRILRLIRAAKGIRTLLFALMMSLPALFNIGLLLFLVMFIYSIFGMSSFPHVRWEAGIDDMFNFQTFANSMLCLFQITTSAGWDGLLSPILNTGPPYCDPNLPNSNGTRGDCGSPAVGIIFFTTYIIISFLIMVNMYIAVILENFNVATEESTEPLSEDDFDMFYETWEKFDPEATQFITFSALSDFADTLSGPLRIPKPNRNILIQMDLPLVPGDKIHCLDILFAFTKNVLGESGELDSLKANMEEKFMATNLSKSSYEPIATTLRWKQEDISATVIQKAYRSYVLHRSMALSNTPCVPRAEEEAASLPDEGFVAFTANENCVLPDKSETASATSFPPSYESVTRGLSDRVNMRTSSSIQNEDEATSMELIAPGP
pIC50: −log10 of the molar value.
ENDPOINT NAME: pIC50

Return reported pIC50. Input molecule: CS(=O)(=O)c1cccc(NC(=O)c2cc(C(F)(F)F)cnc2Oc2cccc(OC(F)(F)F)c2)c1 [Compound 1657]
6.30 to 6.70

Recall and state the measured pIC50 for COc1cc(C#N)ccc1Oc1nnc(C(F)(F)F)c(C)c1C(=O)Nc1ccc(C(N)=O)cc1 [Compound 1405] .
≥ 7.70

# return recorded pIC50 for input COc1cc(C#N)ccc1Oc1nnc(C(F)(F)F)c(C)c1C(=O)Nc1cccnc1 [Compound 1543]
6.70 to 7.40

Please report pIC50 for the following molecule: CS(=N)(=O)c1cccc(NC(=O)c2cc(C(F)(F)F)cnc2Oc2ccc(Br)cc2C2CC2)c1 (stereo not shown) [Compound 1648]
≥ 7.70
